Protocol: Pharmacokinetics after single oral administration to rats
Type: in vivo, rat
Assay context: male, Wistar, rat, plasma, po, 100 mg/kg, Table S7, 100 mg/kg PO, male Wistar rats, plasma, mean of Rat#7-12; read-out: AUCINF, Mean
Recorded endpoint: AUC(0-inf) (ng·h/mL)
Numbers only; they are read as ng·h/mL.

Task: What measured AUC(0-inf) goes with COc1cc(Nc2ncnc(Nc3cc4c(cn3)NC(=O)C(C)(C)O4)n2)cc(OC)c1OC ?
Result: 4270

---

Protocol: Tissue distribution after single oral administration in rats
Assay type: in vivo, rat
Assay context: rat; kidney, 100 mg/kg PO, male Wistar rats, Estimated Value
Recorded endpoint: Tmax (h)
Numbers only; they are read as h.

Task: What measured Tmax goes with COc1cc(Nc2ncnc(Nc3cc4c(cn3)NC(=O)C(C)(C)O4)n2)cc(OC)c1OC ?
Result: 2
